Tested on: MATIN
Assay: Pre-emergence herbicidal action against MATIN
Assay type: in vivo, Matricaria inodora
Settings: Tripleurospermum inodorum, 504 h, dosage 20 g/ha
pest or weed control at 20 g/ha for assorted compounds
outcome measure: pest or weed control at 20 g/ha

>>> result("Cn1nnnc1NC(=O)c1ccc(C(F)(F)F)c(C(=O)NC2CC2)c1Br [Example 1-209]")
"80%"
>>> result("CNC(=O)c1c(C(F)(F)F)ccc(C(=O)Nc2nnnn2C)c1OC [Example 1-56]")
"90%"
>>> result("CCNC(=O)c1c(C(F)F)ccc(C(=O)Nc2nnnn2C)c1SC [Example 1-88]")
"100%"
>>> result("Cn1nnnc1NC(=O)c1ccc(C(F)(F)F)c(C(=O)NCC(F)(F)F)c1Br [Example 1-211]")
"90%"
>>> result("CC(C)NC(=O)c1c(C(F)F)ccc(C(=O)Nc2nnnn2C)c1Cl [Example 1-155]")
"100%"
>>> result("CCCn1nnnc1NC(=O)c1ccc(C(F)(F)F)c(C(=O)NC)c1Cl [Example 3-129]")
"90%"
>>> result("CCn1nnnc1NC(=O)c1ccc(C(F)F)c(C(=O)NC2CC2)c1Br [Example 2-227]")
"100%"
>>> result("Cc1c(C(=O)Nc2nnnn2C)ccc(C(F)(F)F)c1C(=O)NC(C)C [Example 1-33]")
"100%"
>>> result("CNC(=O)c1c(C(F)(F)C(F)(F)F)ccc(C(=O)Nc2nnnn2C)c1Cl [Example 1-165]")
"100%"
>>> result("CCn1nnnc1NC(=O)c1ccc(C(F)(F)F)c(C(=O)NC2CC2)c1SC [Example 2-83]")
"100%"
>>> result("CNC(=O)c1c(Br)ccc(C(=O)Nc2nnnn2C)c1Br [Example 1-342]")
"80%"
>>> result("CSc1c(C(=O)Nc2nnnn2C)ccc(C(F)F)c1C(=O)NC1CC1 [Example 1-89]")
"90%"
>>> result("CCn1nnnc1NC(=O)c1ccc(C(F)F)c(C(=O)NC(C)C)c1C [Example 2-345]")
"100%"
>>> result("CCn1nnnc1NC(=O)c1ccc(C(F)(F)F)c(C(=O)NC)c1Br [Example 2-207]")
"90%"
>>> result("Cc1c(C(=O)Nc2nnnn2C)ccc(C(F)(F)F)c1C(=O)NC1CC1 [Example 1-27]")
"100%"
>>> result("CCn1nnnc1NC(=O)c1ccc(C(F)(F)F)c(C(=O)NC2CC2)c1Cl [Example 2-131]")
"90%"
>>> result("CCCNC(=O)c1c(C(F)F)ccc(C(=O)Nc2nnnn2C)c1C [Example 1-345]")
"100%"
>>> result("Cn1nnnc1NC(=O)c1ccc(C(F)F)c(C(=O)NC2CC2)c1Cl [Example 1-149]")
"100%"
